# experimental.system: H1047R PIK3CA enzyme (Homo sapiens, UniProt P42336, H1047R)
# Sequence (P42336 whole entry H1047R): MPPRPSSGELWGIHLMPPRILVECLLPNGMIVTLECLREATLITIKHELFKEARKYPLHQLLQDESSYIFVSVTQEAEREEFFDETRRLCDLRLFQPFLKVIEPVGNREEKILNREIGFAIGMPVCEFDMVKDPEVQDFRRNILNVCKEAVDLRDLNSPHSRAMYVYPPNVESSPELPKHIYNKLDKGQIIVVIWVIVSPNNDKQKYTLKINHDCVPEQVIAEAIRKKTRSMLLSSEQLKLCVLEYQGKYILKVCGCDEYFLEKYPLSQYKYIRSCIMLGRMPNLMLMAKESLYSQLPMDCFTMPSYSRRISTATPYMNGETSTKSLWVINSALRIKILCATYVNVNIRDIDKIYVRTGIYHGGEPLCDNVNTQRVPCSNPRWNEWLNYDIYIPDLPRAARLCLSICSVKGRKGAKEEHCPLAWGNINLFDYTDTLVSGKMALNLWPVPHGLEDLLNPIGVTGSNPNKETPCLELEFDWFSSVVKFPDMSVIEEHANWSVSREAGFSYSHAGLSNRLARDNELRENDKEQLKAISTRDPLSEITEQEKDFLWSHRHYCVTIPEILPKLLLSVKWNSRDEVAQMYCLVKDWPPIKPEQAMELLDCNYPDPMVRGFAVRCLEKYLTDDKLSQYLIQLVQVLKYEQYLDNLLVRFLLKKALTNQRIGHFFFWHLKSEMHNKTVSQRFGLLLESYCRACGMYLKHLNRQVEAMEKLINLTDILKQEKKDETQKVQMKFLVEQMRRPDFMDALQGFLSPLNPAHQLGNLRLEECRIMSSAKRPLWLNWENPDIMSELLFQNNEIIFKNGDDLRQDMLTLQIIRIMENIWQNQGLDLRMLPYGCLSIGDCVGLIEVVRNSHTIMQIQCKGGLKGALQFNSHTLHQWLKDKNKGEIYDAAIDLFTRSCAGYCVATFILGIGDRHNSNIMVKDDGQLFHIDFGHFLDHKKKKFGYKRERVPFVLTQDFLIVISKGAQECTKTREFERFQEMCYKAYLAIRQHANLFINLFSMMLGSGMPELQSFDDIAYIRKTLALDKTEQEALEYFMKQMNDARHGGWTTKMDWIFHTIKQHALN
# Sequence (P27986 whole entry partner): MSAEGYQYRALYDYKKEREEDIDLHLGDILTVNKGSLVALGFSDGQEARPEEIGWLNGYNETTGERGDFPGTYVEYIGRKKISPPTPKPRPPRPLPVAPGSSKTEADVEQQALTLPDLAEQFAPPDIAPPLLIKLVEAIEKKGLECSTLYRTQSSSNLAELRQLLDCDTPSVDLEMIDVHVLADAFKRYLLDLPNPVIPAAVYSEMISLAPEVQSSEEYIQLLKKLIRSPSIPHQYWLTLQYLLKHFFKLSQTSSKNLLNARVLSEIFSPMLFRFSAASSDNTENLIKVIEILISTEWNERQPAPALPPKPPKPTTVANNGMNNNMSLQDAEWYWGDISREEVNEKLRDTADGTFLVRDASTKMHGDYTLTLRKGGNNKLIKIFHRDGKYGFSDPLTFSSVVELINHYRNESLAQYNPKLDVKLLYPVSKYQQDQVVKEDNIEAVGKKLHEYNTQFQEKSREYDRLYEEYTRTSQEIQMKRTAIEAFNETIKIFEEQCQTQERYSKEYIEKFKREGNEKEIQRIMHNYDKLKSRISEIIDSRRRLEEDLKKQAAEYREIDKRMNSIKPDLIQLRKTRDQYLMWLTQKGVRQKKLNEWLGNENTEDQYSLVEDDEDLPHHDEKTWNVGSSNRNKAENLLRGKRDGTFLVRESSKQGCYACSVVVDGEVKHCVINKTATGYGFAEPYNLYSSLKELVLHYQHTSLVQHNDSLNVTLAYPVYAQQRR
# protocol: ADP-Glo Biochemical PIK3CA Kinase Assay
assay.readout: IC50

{"columns": ["compound", "IC50"],
 "data": [
  ["O=C1N[C@H](c2cc(F)ccc2Cl)c2c(NC(=O)N3C[C@@](O)(C(F)(F)F)c4cc(F)ccc43)cc(N3CCOC3=O)cc21 (single isomer, unassigned)", "≤ 100 nM"],
  ["O=C(Nc1cc(Br)cc2c1C(c1ccc(F)cc1Cl)NC2=O)c1cc(F)cc(C(F)(F)F)c1 (stereo not drawn)", "100 to 500 nM"],
  ["O=C(Nc1cc(N2CCc3ncccc32)cc2c1C(c1cc(F)ccc1Cl)NC2=O)c1cc(F)cc(C(F)(F)F)c1 (stereo not drawn)", "≤ 100 nM"],
  ["O=C(Nc1ccccc1)c1cccc2c1C(c1cc(F)ccc1Cl)NC2=O (stereo not drawn)", "10000 to 100000 nM"],
  ["CS(=O)(=O)N1CCC[C@H]1COc1cc(NC(=O)c2cc(F)cc(C(F)(F)F)c2)c2c(c1)C(=O)NC2c1cc(F)ccc1Cl (single isomer, unassigned)", "≤ 100 nM"]
]}

Pending compound:
Q: Query: IC50; subject: Nc1cc(NC(=O)c2cc(F)cc(C(F)(F)F)c2)c2c(n1)C(=O)NC2c1cc(F)ccc1Cl (stereo not drawn)
Result: 100 to 500 nM

----------
# protocol: cells
# condition.parameters: Homo sapiens, MCF-10A, read-out: MCF10A IC50
pIC50: −log10 of the molar value.
pIC50: recorded values

Example entries begin here.
{"columns": ["compound", "assay.readout", "test.result"],
 "data": [
  ["O=C1N[C@H](c2cc(F)ccc2Cl)c2c(NC(=O)N3C[C@@](O)(C(F)(F)F)c4cc(F)ccc43)ccnc21 (single isomer, unassigned) [Compound I-2698]", "pIC50", "5.30 to 6.00"],
  ["O=C1NC(c2cc(F)ccc2Cl)c2c(NC(=O)N3CC(C(F)F)c4ccccc43)cccc21 (mixture of isomers) [Compound I-2246]", "pIC50", "5.30 to 6.00"],
  ["Cc1ccccc1C1NC(=O)c2cc(CS(C)(=O)=O)cc(NC(=O)c3nsc4ccccc34)c21 (stereo not drawn) [Compound I-202]", "pIC50", "> 6.00"]
]}

Q: If you can, please state the reported pIC50 value of O=C(Nc1cc(-n2ccccc2=O)cc2c1C(c1cc(F)ccc1Cl)NC2=O)c1cc(F)cc(C(F)(F)F)c1 (stereo not drawn) [Compound I-2192] .
Result: 5.30 to 6.00

Q: Also, CNc1nc2ccc(-c3cc(NC(=O)c4cc(F)cc(C(F)(F)F)c4)c4c(c3)C(=O)NC4c3cc(F)ccc3Cl)cn2n1 (stereo not drawn) [Compound I-2125] please.
Result: > 6.00

Q: # iterate: O=C(Nc1cc(-c2cc3cnccc3[nH]2)cc2c1C(c1cc(F)ccc1Cl)NC2=O)c1cc(F)cc(C(F)(F)F)c1 (stereo not drawn) [Compound I-949]
Result: 5.30 to 6.00

----------
# experimental.system: H1047R PIK3CA enzyme (Homo sapiens, UniProt P42336, H1047R)
# protocol: ADP-Glo Biochemical PIK3CA Kinase Assay
assay.readout: IC50

Past entries and their recorded results:
{"columns": ["molecule", "experimental.system", "IC50"],
 "data": [
  ["O=C(Nc1cc(CS(=O)(=O)N2CCC2)cc2c1C(c1cc(F)ccc1Cl)NC2=O)c1cc(F)cc(C(F)(F)F)c1 (stereo not drawn)", "H1047R PIK3CA enzyme (Homo sapiens, UniProt P42336, H1047R)", "≤ 100 nM"],
  ["O=C(Nc1cc(/N=C2\\OC[C@H]3CCCN23)cc2c1C(c1cc(F)ccc1Cl)NC2=O)c1cc(F)cc(C(F)(F)F)c1 (stereo partly drawn)", "H1047R PIK3CA enzyme (Homo sapiens, UniProt P42336, H1047R)", "100 to 500 nM"],
  ["Cc1ccccc1[C@H]1NC(=O)c2cccc(NC(=O)c3coc4c(F)cc(F)cc34)c21", "H1047R PIK3CA enzyme (Homo sapiens, UniProt P42336, H1047R)", "10000 to 100000 nM"],
  ["CN(C)c1ncc(-c2cc(NC(=O)c3cc(F)cc(C(F)(F)F)c3)c3c(c2)C(=O)NC3c2cc(F)ccc2Cl)cn1 (stereo not drawn)", "H1047R PIK3CA enzyme (Homo sapiens, UniProt P42336, H1047R)", "≤ 100 nM"],
  ["O=C(Nc1cc(C2CCCO2)cc2c1C(c1cc(F)ccc1Cl)NC2=O)c1cc(F)cc(C(F)(F)F)c1 (stereo not drawn)", "H1047R PIK3CA enzyme (Homo sapiens, UniProt P42336, H1047R)", "≤ 100 nM"],
  ["O=C(Nc1cc(Br)cc2c1C(c1cc(F)ccc1Cl)NC2=O)c1cncc(F)c1 (stereo not drawn)", "H1047R PIK3CA enzyme (Homo sapiens, UniProt P42336, H1047R)", "10000 to 100000 nM"]
]}

Q: What value of IC50 has been recorded for this entry: CC(C)(O)COc1cc(NC(=O)c2cc(F)cc(C(F)(F)F)c2)c2c(c1)C(=O)N[C@H]2c1cc(F)ccc1Cl
Result: ≤ 100 nM

Q: Can you check CCC[C@]1(O)CN(C(=O)Nc2cccc3c2[C@@H](c2cc(F)ccc2Cl)NC3=O)c2ccc(F)cc21 (single isomer, unassigned) next?
Result: 1000 to 10000 nM

Q: Another: Cc1ncc(-c2cc(NC(=O)c3cc(F)cc(C(F)(F)F)c3)c3c(c2)C(=O)N[C@@H]3c2cc(F)ccc2Cl)cn1
Result: 1000 to 10000 nM

Q: Quick one: O=C(Nc1cc(-c2cnn(C(F)F)c2)cc2c1C(c1cc(F)cc(F)c1)NC2=O)c1cc(F)cc(F)c1 (stereo not drawn)
Result: 100 to 500 nM

Q: Then O=C(Nc1cc(-c2ccn3cncc3c2)cc2c1C(c1cc(F)ccc1Cl)NC2=O)c1cc(F)cc(C(F)(F)F)c1 (stereo not drawn) ?
Result: ≤ 100 nM

Q: Ok, now O=C(Nc1cc(-c2ccc3ncc(F)n3c2)cc2c1[C@@H](c1cc(F)ccc1Cl)NC2=O)c1cc(F)cc(C(F)(F)F)c1
Result: 500 to 1000 nM

Q: Moving on to O=C(Nc1cc(Br)cc2c1C(c1cc(F)ccc1Cl)NC2=O)c1cc(F)cc(C2CCC2)c1 (stereo not drawn)
Result: 1000 to 10000 nM

Q: Moving on to C[C@@H](C#N)Cn1cc(-c2cc(NC(=O)N3C[C@@H](O)c4cc(F)ccc43)c3c(c2)C(=O)N[C@H]3c2cc(F)ccc2Cl)cn1 (single isomer, unassigned)
Result: ≤ 100 nM

Q: What about this molecule? O=C1NC(c2cc(F)ccc2Cl)c2c(NC(=O)N3CCc4ccccc4CC3)cccc21 (stereo not drawn)
Result: 10000 to 100000 nM

Q: What do you get for Nc1cc(NC(=O)c2cc(F)cc(C(F)(F)F)c2)c2c(c1)C(=O)NC2c1ccccc1Cl (stereo not drawn) ?
Result: ≤ 100 nM

Q: Repeat for the following molecule: O=C(Cc1ccccc1C(F)(F)F)Nc1cc(Br)cc2c1C(c1cc(F)ccc1Cl)NC2=O (stereo not drawn)
Result: 1000 to 10000 nM

Q: How about this molecule: O=C(Nc1cccc2c1C(C1CCNCC1)NC2=O)c1cc(F)cc(C(F)(F)F)c1 (racemic)
Result: 1000 to 10000 nM

Q: Field entry: O=C1NC(c2cc(F)ccc2Cl)c2c(NC(=O)N3CCCC34CCCC4)cc(Br)cc21 (stereo not drawn)
Result: 500 to 1000 nM

Q: Request: O=C1NC(c2cc(F)ccc2Cl)c2c(NC(=O)N3CCSc4ccccc43)cccc21 (stereo not drawn)
Result: 10000 to 100000 nM

Q: Repeat with O=C1N[C@@H](c2cc(F)ccc2Cl)c2c(NC(=O)N3C[C@H](O)c4c3ccc(F)c4F)cccc21 (single isomer, unassigned)
Result: 1000 to 10000 nM

Q: Also O=C1NC(c2cc(F)ccc2Cl)c2c(Nc3ccn(CCO)n3)cc(-c3ccc4ncnn4c3)cc21 (stereo not drawn) , if possible.
Result: 10000 to 100000 nM

----------
# protocol: cells
# condition.parameters: Homo sapiens, MCF-10A, read-out: MCF10A IC50
assay.readout: IC50

Sample records with IC50:
{"columns": ["compound", "assay.readout", "test.result"],
 "data": [
  ["O=C1NC(c2cc(F)ccc2Cl)c2c(NC(=O)c3nsc4ccccc34)cccc21 (stereo not shown) [Compound I-83]", "IC50", "< 1000 nM"],
  ["COc1ncccc1-c1cc(NC(=O)c2cc(F)cc(C(F)(F)F)c2)c2c(c1)C(=O)NC2c1cc(F)ccc1Cl (stereo not shown) [Compound I-1091]", "IC50", "< 1000 nM"],
  ["O=C1N[C@@H](c2cc(F)ccc2Cl)c2c(NC(=O)N3C[C@@H](O)c4ccccc43)cc(Br)cc21 (single isomer, unassigned) [Compound I-1514]", "IC50", "1000 to 5000 nM"],
  ["O=C1N[C@@H](c2cc(F)ccc2Cl)c2c(NC(=O)N3C[C@](O)(C(F)(F)F)c4cc(F)ccc43)cc(F)cc21 (single isomer, unassigned) [Compound I-2630]", "IC50", "< 1000 nM"],
  ["O=C(Nc1cccc2c1C(c1cc(F)ccc1Cl)NC2=O)c1csc2c1CCCC2 (stereo not shown) [Compound I-2239]", "IC50", "1000 to 5000 nM"],
  ["Cn1nccc1-c1cc(NC(=O)c2cc(F)cc(C(F)(F)F)c2)c2c(c1)C(=O)NC2c1cc(F)ccc1Cl (stereo not shown) [Compound I-906]", "IC50", "< 1000 nM"]
]}

Q: Returns the measured IC50 for the input compound. Input: O=C1N[C@@H](c2cc(F)ccc2Cl)c2c(NC(=O)N3C[C@@H](C(F)F)c4ccccc43)cccc21 (single isomer, unassigned) [Compound I-2334]
Result: 1000 to 5000 nM

Q: For Cn1cc(-c2cc(NC(=O)c3cc(F)cc(C(F)(F)F)c3)c3c(c2)C(=O)NC3c2cc(F)ccc2Cl)ncc1=O (stereo not shown) [Compound I-1016] then?
Result: < 1000 nM

Q: Next entry: O=C(Nc1cc(-c2ncc[nH]2)cc2c1[C@H](c1cc(F)ccc1Cl)NC2=O)c1cc(F)cc(C(F)(F)F)c1 [Compound I-919]
Result: < 1000 nM

Q: Subsequent entry: N#CCc1cc(NC(=O)N2C[C@](O)(C(F)(F)F)c3cc(F)ccc32)c2c(c1)C(=O)N[C@@H]2c1cc(F)ccc1Cl (single isomer, unassigned) [Compound I-2627]
Result: < 1000 nM

Q: Try this compound too: O=C(Nc1cc(-n2cccn2)cc2c1C(c1cc(F)ccc1Cl)NC2=O)c1cc(F)cc(C(F)(F)F)c1 (stereo not shown) [Compound I-960]
Result: < 1000 nM

Q: What would you report for O=C1CCc2c(cccc2-c2cc(NC(=O)c3cc(F)cc(C(F)(F)F)c3)c3c(c2)C(=O)NC3c2cc(F)ccc2Cl)N1 (stereo not shown) [Compound I-1028] ?
Result: < 1000 nM
